melting point values by entry

# COMPOUND, MEASUREMENT
rows = [
    ("Cc1sc(C)c2c(=O)n3cc(C(N)=O)ccc3nc12", "272 to 275 °C"),
]

Turning to the following compound.
Input line: melting point lookup needed for O=C(O)COc1ccc(C2=CC(=O)CC(c3ccccc3)C2)c(Cl)c1Cl (stereo unspecified) , thanks.
Output line: 197 to 199 °C

====

REPORTED_PROPERTY: melting point

# COMPOUND, melting point
records = [
    ("CC(=O)c1c(O)cccc1OCC(O)COc1ccccc1C (stereo not drawn)", "101 to 102 °C"),
    ("CN1Cc2c(-c3nc(C4CC4)no3)ncn2-c2cccc(Cl)c2C1=O", "183 to 184 °C"),
    ("Nc1nc(=O)n(C2OC(CO)C(O)C2F)cc1Br (stereo not drawn)", "201 to 202 °C"),
]

Input line: melting point for Cc1ccc(CO)nc1-c1ccccn1 ?
Output line: 51 to 53 °C

Input line: Entry under review: C=CCO[C@@H]1CC(C(=O)O)=C[C@@H](OC(C)C)[C@@H]1NC(C)=O . Reported melting point?
Output line: 70 to 71 °C

Input line: Reported melting point, compound COC1=C(OC)C(=O)C2=C(CC(CCCCCCCCOC(C)=O)C2)C1=O : ____
Output line: 47 to 48 °C

====

In this section, each of the compounds is paired with its reported melting point.

Some compounds with recorded melting point:
# COMPOUND, melting point
data = [
    ("CC(C(=O)O)C(=O)NCCC=C1c2ccccc2CCc2ccccc21 (stereo not given)", "174 to 176 °C"),
    ("CC(C)Oc1c(C(=O)O)sc(-c2ccccc2)c1Br", "159 to 160 °C"),
    ("Cc1nccc(-c2cccc(S(=O)(=O)n3c(CCCC(=O)O)cc4nc(Cl)ccc43)c2)n1", "178 to 188 °C"),
    ("O=c1ccsc2c3ccccc3n(CCN3CCOCC3)c12", "136 to 137 °C"),
    ("COc1cc2nc(N3CCN(C(=O)C45CC6CC(CC(C6)C4)C5)CC3)nc(N)c2cc1OC", "237 to 240 °C"),
    ("CC(C)=Cc1ccc(-c2ccc(CCCI)cc2)cc1", "58 to 61 °C"),
]

Input line: Query: melting point; subject: Cc1ccc(-c2[nH]c(C(F)(F)F)nc2-c2ccc(S(C)(=O)=O)cc2)cc1
Output line: 234 to 238 °C

Input line: Query: melting point; subject: Fc1cc(-c2ccc3nnn(Cc4ccc5ncccc5c4)c3n2)ccc1OCC1CC1
Output line: 160 to 162 °C

Input line: Recorded melting point for Nc1cnc2cc(Cl)ccc2c1Nc1ccc(F)cc1 , please?
Output line: 198 to 200 °C

Input line: What value of melting point has been reported for the following compound? COc1ccc(C)c(N2CCN(C(=O)N(C)c3cc(C)c(C)nc3OC)CC2)c1
Output line: 91 to 93 °C

====

REPORTED_PROPERTY: melting point

Input line: Can you look up the measured melting point of Cc1n[nH]c2c1nc(-c1ccccc1)c1cc(Br)ccc12 for me?
Output line: 299 to 300 °C

Input line: Given the molecule COc1ccc(N2C(=O)[C@H](O)[C@@H]2CC(C)C)cc1 , what is its reported melting point?
Output line: 160 to 163 °C

Input line: Returns the measured melting point for the input molecule. Input: COC(=O)C(C(C)C)N1CC(NC(=O)Cc2ccccc2)C1=O (stereo unspecified)
Output line: 105 to 107 °C

Input line: Query: melting point; subject: C=C(OCC)c1cc(C(=O)OC)c(NC(C)=O)cc1C(F)(F)F
Output line: 65 to 73 °C

Input line: Recorded melting point of NC(=O)c1c(F)ccc(OCc2ccc3sccc3c2)c1F , please.
Output line: 146 to 148 °C

Input line: Any idea what melting point was measured for Cc1ccc(-c2csc(C(=O)O)n2)cc1 ?
Output line: 112 to 114 °C

====

melting point values, listed per item

// known answers, use as guide
# COMPOUND, melting point
data = [
    ("C=CCNC(=O)C1C=C(O)c2cc(Cl)ccc2O1 (centres undefined)", "129 to 130 °C"),
    ("CN(C)c1ccc(-c2nc(Cl)c(CC(N)=O)n2Cc2ccccc2)cc1", "215 to 216 °C"),
    ("COc1cc(C(=O)N2Cc3ccc(C(=O)NCc4ccccc4C(F)(F)F)n3Cc3ccccc32)ccc1-c1ccccc1C", "165 to 167 °C"),
]

Input line: Can you share its melting point? I mean this compound: CC(C)C(=O)c1ccc(N2CCOCC2)cc1
Output line: 75 to 77 °C

Input line: Given the entry Nc1ncnc2c1c(C#CCO)nn2Cc1oc2ccccc2c(=O)c1-c1ccccc1 , report its measured melting point.
Output line: 171 to 173 °C

Input line: // returns reported melting point for input CNC1=NS(=O)(=O)N=C1NCCCCc1ccc(CN(C)C)o1
Output line: 152 to 153 °C

====

Listing: melting point of selected compounds

# example entries with known answers
# COMPOUND, melting point
rows = [
    ("CCC(CC)Cn1c(=O)c(=O)[nH]c2cc([N+](=O)[O-])c(-n3cccc3C(=O)OC)cc21", "240 to 241 °C"),
    ("COC(=O)C1=C(C)N(C)C(C)C(C(=O)OC)=C1c1ccc(C(F)(F)F)cc1 (stereo not given)", "94 to 95 °C"),
    ("Cc1cc(O)c(S(=O)CCC(C)C)c(=O)o1 (stereo not given)", "80 to 81 °C"),
    ("CN1C(=O)c2c(c3ccc(Cl)cc3n2CCN2CCCCC2)Oc2ccccc21", "160 to 162 °C"),
    ("O=c1[nH]c2ccc(-c3cccc([N+](=O)[O-])c3)cc2s1", "276 to 277 °C"),
]

Input line: // returns reported melting point for input CCCCC1OC(=O)c2cc(NC3CCCCC3)ccc21 (stereo not given)
Output line: 123 to 124 °C

====

Measured melting point accompanies every entry in the list below.

Observe how each entry below is paired with its result.
# COMPOUND, REPORTED_PROPERTY, MEASUREMENT
records = [
    ("CN(C)C(=O)c1ccccc1Sc1ccc(F)cc1[N+](=O)[O-]", "melting point", "56 to 57 °C"),
    ("COC(=O)c1ccc(CO)cc1N", "melting point", "100 to 102 °C"),
    ("O=C(O)c1c(Br)c(Br)cc2c1OCCO2", "melting point", "212 °C"),
    ("CCC(N)(CC)Cc1c[nH]c2ccccc12", "melting point", "92 to 94 °C"),
    ("Clc1cccc2cnsc12", "melting point", "50 to 51 °C"),
    ("CNC(=O)c1ccc(C(=O)O)cc1", "melting point", "270 °C"),
    ("O=C1C(Cl)=C(c2ccccc2)C(=O)N1Nc1ccccc1", "melting point", "144 to 146 °C"),
    ("O=C(O)COc1c(Cl)cc(F)cc1Cl", "melting point", "155 to 158 °C"),
]

Input line: Which value of melting point has been reported for COC(=O)C1Cc2c([nH]c3ccccc23)C(c2cc3ccccc3o2)N1 (configuration not stated) in the records?
Output line: 195 to 198 °C

Input line: Give its melting point value. Item: Nc1nc2c(ncn2COCCCOC(=O)c2ccccc2)c(=O)[nH]1
Output line: 198 to 201 °C

Input line: Suppose we examine the compound Fc1cc2[nH]c(S)nc2cc1N1CCCC1 ; what melting point value has been reported?
Output line: 170 to 171 °C

Input line: Request the reported melting point associated with COc1ccc2c(c1)c1c3c(c(-c4ccccc4Cl)cc1n2C(C)=O)C(=O)NC3=O
Output line: 277 to 280 °C

====

REPORTED_PROPERTY: melting point

Check out these entries, answers already filled in.
# COMPOUND, melting point
rows = [
    ("CC(=O)Nc1ccc(F)c(-c2ccncc2)n1", "254 to 256 °C"),
    ("COc1cc(COC(=O)NCCN2CCOCC2)ccc1OC(C)=O", "82 to 83 °C"),
    ("COCCn1cnc2cc(CN3CCN(C(c4ccccc4)c4ccccc4)CC3)ccc21", "162 °C"),
    ("CCNC(=O)c1sc(C)c(C)c1[Si](C)(C)C", "77 to 80 °C"),
    ("Cc1cccc(-c2nc(Nc3ccc(Cl)cc3)c3ccccc3n2)n1", "256 to 259 °C"),
    ("CON=Cc1ccc2c(c1)ncn2-c1cccc(-n2ccnc2)c1", "197 to 199 °C"),
    ("CCCCCCCCCCCCCCCCOc1ccc(OCC(=O)NCCc2ccccn2)cc1", "74 to 75 °C"),
    ("O=C(O)CCc1cc(C(c2cc(F)ccc2F)S(=O)(=O)c2ccc(Cl)cc2)c(F)cn1 (stereo not given)", "89 to 91 °C"),
    ("COc1cccn2c(=O)c(CCOS(C)(=O)=O)c(C)nc12", "180 °C"),
]

Next, consider the following compound.
Input line: For the compound CCN(CC)C(=O)c1cc2ccsc2c(-c2ccccc2Cl)n1 , what melting point is on record?
Output line: 86 °C
